PROTOCOL_DESCRIPTION: The drug is tested on WLS-220 corresponding to human gut metagenome with ENA study accession number: PRJEB37062 and ENA sample accession number: ERS12561769 for biotransformation under anaerobic condition. The drug concentrations were measured over 9 timepoints collected between 0 and 24 hours of incubation by liquid-chromatography-coupled mass spectrometry (LC–MS); note: call rule not given here
CONDITIONS: 2 µM

>  <MOLECULE>
Cc1cc2c(s1)Nc1ccccc1N=C2N1CCN(C)CC1

>  <Bacterial Biotransformation>
Compound NOT metabolized

$$$$
>  <MOLECULE>
CN1CCN2c3ccccc3Cc3ccccc3C2C1 (configuration not stated)

>  <Bacterial Biotransformation>
Compound metabolized

$$$$
>  <MOLECULE>
CC#CCn1c(N2CCC[C@@H](N)C2)nc2c1c(=O)n(Cc1nc(C)c3ccccc3n1)c(=O)n2C

>  <Bacterial Biotransformation>
Compound NOT metabolized

$$$$
>  <MOLECULE>
CN(C/C=C/C#CC(C)(C)C)Cc1cccc2ccccc12

>  <Bacterial Biotransformation>
Compound NOT metabolized

$$$$
>  <MOLECULE>
OC(c1cc(C(F)(F)F)nc2c(C(F)(F)F)cccc12)C1CCCCN1 (configuration not stated)

>  <Bacterial Biotransformation>
Compound metabolized

$$$$
>  <MOLECULE>
CC(=O)O[C@]1(C(C)=O)CC[C@H]2[C@@H]3C=C(C)C4=CC(=O)CC[C@]4(C)[C@H]3CC[C@@]21C [MEGESTROL ACETATE]

>  <Bacterial Biotransformation>
Compound metabolized

$$$$
>  <MOLECULE>
O=C1CN2Cc3c(ccc(Cl)c3Cl)N=C2N1 [ANAGRELIDE]

>  <Bacterial Biotransformation>
Compound metabolized

$$$$
>  <MOLECULE>
CC(C)c1c(CN(C)C(C)Cc2ccccc2)n(C)n(-c2ccccc2)c1=O (configuration not stated)

>  <Bacterial Biotransformation>
Compound metabolized

$$$$
>  <MOLECULE>
N[C@@H](Cc1ccc(N(CCCl)CCCl)cc1)C(=O)O

>  <Bacterial Biotransformation>
Compound metabolized

$$$$
>  <MOLECULE>
COC(=O)[C@H](c1ccccc1Cl)N1CCc2sccc2C1.O=S(=O)(O)O [CLOPIDOGREL BISULFATE]

>  <Bacterial Biotransformation>
Compound metabolized

$$$$
>  <MOLECULE>
CC(N)C12CC3CC(CC(C3)C1)C2 (configuration not stated)

>  <Bacterial Biotransformation>
Compound NOT metabolized

$$$$
>  <MOLECULE>
CCc1cccc2c3c([nH]c12)C(CC)(CC(=O)O)OCC3 (configuration not stated)

>  <Bacterial Biotransformation>
Compound metabolized

$$$$
>  <MOLECULE>
N#Cc1ccc2[nH]cc(CCCCN3CCN(c4ccc5oc(C(N)=O)cc5c4)CC3)c2c1

>  <Bacterial Biotransformation>
Compound metabolized

$$$$
>  <MOLECULE>
C=CC[C@@H]1/C=C(\C)C[C@H](C)C[C@H](OC)[C@H]2O[C@@](O)(C(=O)C(=O)N3CCCC[C@H]3C(=O)O[C@H](/C(C)=C/[C@@H]3CC[C@@H](O)[C@H](OC)C3)[C@H](C)[C@@H](O)CC1=O)[C@H](C)C[C@@H]2OC.O

>  <Bacterial Biotransformation>
Compound metabolized

$$$$
>  <MOLECULE>
CC(C)c1nc(N(C)S(C)(=O)=O)nc(-c2ccc(F)cc2)c1/C=C/[C@@H](O)C[C@@H](O)CC(=O)[O-].CC(C)c1nc(N(C)S(C)(=O)=O)nc(-c2ccc(F)cc2)c1/C=C/[C@@H](O)C[C@@H](O)CC(=O)[O-].[Ca+2]

>  <Bacterial Biotransformation>
Compound metabolized

$$$$
>  <MOLECULE>
Cc1cc(C)cc(OCC2CNC(=O)O2)c1 (configuration not stated)

>  <Bacterial Biotransformation>
Compound metabolized

$$$$
>  <MOLECULE>
C[C@]12CCC(=O)C=C1[C@@H]1C[C@@H]1[C@H]1[C@@H]3[C@@H]4C[C@@H]4[C@@]4(CCC(=O)O4)[C@@]3(C)CC[C@@H]12

>  <Bacterial Biotransformation>
Compound metabolized

$$$$
>  <MOLECULE>
CN(C)C(=O)Oc1cc(OC(=O)N(C)C)cc(C(O)CNC(C)(C)C)c1 (configuration not stated)

>  <Bacterial Biotransformation>
Compound metabolized

$$$$
>  <MOLECULE>
COc1ccnc(C[S+]([O-])c2nc3ccc(OC(F)F)cc3[nH]2)c1OC (configuration not stated)

>  <Bacterial Biotransformation>
Compound metabolized

$$$$
>  <MOLECULE>
CCOC(=O)C1=C[C@]2(CC)CCCN3CCc4c(n1c1ccccc41)[C@@H]32

>  <Bacterial Biotransformation>
Compound NOT metabolized

$$$$
>  <MOLECULE>
Cc1ccccc1C(OCCN(C)C)c1ccccc1.O=C(O)CC(O)(CC(=O)O)C(=O)O (configuration not stated) [ORPHENADRINE CITRATE]

>  <Bacterial Biotransformation>
Compound NOT metabolized

$$$$
>  <MOLECULE>
CN(C)CCC=C1c2ccccc2COc2ccccc21 [DOXEPIN]

>  <Bacterial Biotransformation>
Compound metabolized

$$$$
>  <MOLECULE>
COc1ccc(CN2CCNCC2)c(OC)c1OC.Cl.Cl [TRIMETAZIDINE DIHYDROCHLORIDE]

>  <Bacterial Biotransformation>
Compound NOT metabolized

$$$$
>  <MOLECULE>
CC1Cc2ccccc2N1NC(=O)c1ccc(Cl)c(S(N)(=O)=O)c1 (configuration not stated) [INDAPAMIDE]

>  <Bacterial Biotransformation>
Compound NOT metabolized

$$$$
>  <MOLECULE>
CC(=O)Nc1ccc(OC(C)=O)cc1 [DIACETAMATE]

>  <Bacterial Biotransformation>
Compound metabolized

$$$$
>  <MOLECULE>
CC(C)[C@H]1CC[C@H](C(=O)N[C@H](Cc2ccccc2)C(=O)O)CC1 [NATEGLINIDE]

>  <Bacterial Biotransformation>
Compound metabolized

$$$$
>  <MOLECULE>
CC(C)C[C@H]1C(=O)N2CCC[C@H]2[C@]2(O)O[C@](NC(=O)[C@@H]3C=C4c5cccc6[nH]c(Br)c(c56)C[C@H]4N(C)C3)(C(C)C)C(=O)N12.CS(=O)(=O)O [BROMOCRIPTINE MESYLATE]

>  <Bacterial Biotransformation>
Compound metabolized

$$$$
>  <MOLECULE>
COc1ccccc1OCCNCC(O)COc1cccc2[nH]c3ccccc3c12 (configuration not stated)

>  <Bacterial Biotransformation>
Compound metabolized

$$$$
>  <MOLECULE>
CCOC(=O)C1=C(C)NC(C)=C(C(=O)OC)C1c1cccc([N+](=O)[O-])c1 (configuration not stated)

>  <Bacterial Biotransformation>
Compound metabolized

$$$$
>  <MOLECULE>
CC(=O)OCC(CCn1cnc2cnc(N)nc21)COC(C)=O

>  <Bacterial Biotransformation>
Compound metabolized

$$$$
>  <MOLECULE>
CCN(CC)CCOC(=O)C1(C2CCCCC2)CCCCC1

>  <Bacterial Biotransformation>
Compound NOT metabolized

$$$$
>  <MOLECULE>
CCN(C)C(=O)Oc1cccc([C@H](C)N(C)C)c1.O=C(O)C(O)C(O)C(=O)O [RIVASTIGMINE TARTRATE]

>  <Bacterial Biotransformation>
Compound NOT metabolized

$$$$
